TGT: GST-tagged truncated LRRK2 (Homo sapiens)
Construct: GST-tagged truncated LRRK2 from Invitrogen (Cat # PV4874); GST
METHOD: LRRK2 kinase assay (Lantha Screen)
STUDY CONDITIONS: 1 mM ATP (head); a = geometric mean of >=4 determinations, b = single determination; read-out: LRRK2 LANTHA EC50 at 1 mM ATP; Geometric mean of 2-3 determinations unless otherwise indicated
pEC50: −log10 of the molar value.
Classification field: TRUE = pEC50 at or over 7; FALSE = pEC50 under 7.

>  <COMPOUND>
N#Cc1cccc(-c2c[nH]c3ncc(C#N)c(N4CCOCC4)c23)c1F

>  <TGT>
GST-tagged truncated LRRK2 (Homo sapiens)

>  <CLASS ASSIGNMENT>
TRUE

$$$$
>  <COMPOUND>
N#Cc1cccc(-c2c[nH]c3nccc(N4CCOCC4)c23)c1

>  <TGT>
GST-tagged truncated LRRK2 (Homo sapiens)

>  <CLASS ASSIGNMENT>
TRUE

$$$$
>  <COMPOUND>
COCC1CN(c2ccnc3[nH]cc(-c4cccc(C#N)c4)c23)CCO1 (stereo not drawn)

>  <TGT>
GST-tagged truncated LRRK2 (Homo sapiens)

>  <CLASS ASSIGNMENT>
TRUE

$$$$
>  <COMPOUND>
Cc1[nH]c2nccc(N3CCOCC3)c2c1-c1ccccc1

>  <TGT>
GST-tagged truncated LRRK2 (Homo sapiens)

>  <CLASS ASSIGNMENT>
FALSE

$$$$
>  <COMPOUND>
Cc1nnc(-c2cccc(-c3c[nH]c4nccc(N5CCOCC5)c34)c2)o1

>  <TGT>
GST-tagged truncated LRRK2 (Homo sapiens)

>  <CLASS ASSIGNMENT>
FALSE

$$$$
>  <COMPOUND>
Cc1cncc(-c2c(C)[nH]c3nccc(N4CCOCC4)c23)c1

>  <TGT>
GST-tagged truncated LRRK2 (Homo sapiens)

>  <CLASS ASSIGNMENT>
FALSE

$$$$

###

TGT: GST-tagged truncated LRRK2 (Homo sapiens, UniProt Q5S007)
Construct: GST-tagged truncated LRRK2 from Invitrogen (Cat # PV4874); GST
Sequence (Q5S007 970-2527 limits assumed): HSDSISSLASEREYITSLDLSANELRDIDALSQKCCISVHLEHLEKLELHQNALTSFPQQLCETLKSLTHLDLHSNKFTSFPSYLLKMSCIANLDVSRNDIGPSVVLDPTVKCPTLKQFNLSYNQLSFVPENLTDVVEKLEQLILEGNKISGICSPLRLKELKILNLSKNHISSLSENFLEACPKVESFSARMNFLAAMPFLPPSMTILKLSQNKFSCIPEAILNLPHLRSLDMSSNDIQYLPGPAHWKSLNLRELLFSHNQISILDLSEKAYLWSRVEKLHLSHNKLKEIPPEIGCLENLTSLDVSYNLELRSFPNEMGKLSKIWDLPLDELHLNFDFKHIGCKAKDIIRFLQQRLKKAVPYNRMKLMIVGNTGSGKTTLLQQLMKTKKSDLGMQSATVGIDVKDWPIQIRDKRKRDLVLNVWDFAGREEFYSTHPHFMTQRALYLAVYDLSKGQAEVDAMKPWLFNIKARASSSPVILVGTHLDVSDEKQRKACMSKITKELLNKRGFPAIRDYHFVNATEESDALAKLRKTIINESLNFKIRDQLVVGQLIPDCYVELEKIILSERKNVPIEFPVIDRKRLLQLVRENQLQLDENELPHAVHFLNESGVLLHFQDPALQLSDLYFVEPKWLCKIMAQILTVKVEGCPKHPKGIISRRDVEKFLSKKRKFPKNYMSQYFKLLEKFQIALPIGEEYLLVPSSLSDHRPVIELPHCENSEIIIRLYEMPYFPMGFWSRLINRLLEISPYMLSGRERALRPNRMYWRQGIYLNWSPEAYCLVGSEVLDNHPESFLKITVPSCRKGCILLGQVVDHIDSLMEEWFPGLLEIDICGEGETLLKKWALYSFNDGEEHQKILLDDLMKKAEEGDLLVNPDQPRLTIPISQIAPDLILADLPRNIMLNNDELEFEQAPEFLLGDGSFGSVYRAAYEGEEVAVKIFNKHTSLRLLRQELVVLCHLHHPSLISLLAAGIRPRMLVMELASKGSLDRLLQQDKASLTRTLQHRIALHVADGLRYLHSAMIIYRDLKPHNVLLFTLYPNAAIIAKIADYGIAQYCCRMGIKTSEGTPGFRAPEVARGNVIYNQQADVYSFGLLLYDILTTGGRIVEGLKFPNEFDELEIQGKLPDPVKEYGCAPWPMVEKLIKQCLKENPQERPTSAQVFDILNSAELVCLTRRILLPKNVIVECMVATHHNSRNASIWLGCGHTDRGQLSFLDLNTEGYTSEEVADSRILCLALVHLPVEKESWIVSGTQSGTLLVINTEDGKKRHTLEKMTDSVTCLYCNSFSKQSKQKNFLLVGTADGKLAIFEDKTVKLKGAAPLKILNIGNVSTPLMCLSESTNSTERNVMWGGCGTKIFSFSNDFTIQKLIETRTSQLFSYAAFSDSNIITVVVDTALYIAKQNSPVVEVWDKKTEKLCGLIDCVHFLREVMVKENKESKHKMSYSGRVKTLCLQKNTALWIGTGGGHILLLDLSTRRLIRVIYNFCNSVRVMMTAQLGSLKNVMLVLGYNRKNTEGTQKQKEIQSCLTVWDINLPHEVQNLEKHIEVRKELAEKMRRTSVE
METHOD: LRRK2 kinase assay (Lantha Screen)
STUDY CONDITIONS: 1 mM ATP (head); a = geometric mean of >=4 determinations, b = single determination; read-out: LRRK2 LANTHA EC50 at 1 mM ATP; Geometric mean of 2-3 determinations unless otherwise indicated
List of EC50 values.
READOUT KIND: EC50 (nM)

>  <COMPOUND>
Cn1cc(-c2c[nH]c3nccc(-c4cc(F)cc(F)c4)c23)cn1

>  <READOUT KIND>
EC50

>  <OBSERVED>
125

$$$$
>  <COMPOUND>
N#Cc1cccc(-c2c[nH]c3nccc(N4CCCC(O)C4)c23)c1 (stereo not drawn)

>  <READOUT KIND>
EC50

>  <OBSERVED>
24.3

$$$$
>  <COMPOUND>
Cc1[nH]c2nccc(N3CCOCC3)c2c1-c1ccccc1F

>  <READOUT KIND>
EC50

>  <OBSERVED>
91.6

$$$$
>  <COMPOUND>
Clc1ccccc1-c1c[nH]c2nccc(N3CCOCC3)c12

>  <READOUT KIND>
EC50

>  <OBSERVED>
143

$$$$
>  <COMPOUND>
N#Cc1ccc(-c2c[nH]c3nccc(N4CCOCC4)c23)c(F)c1

>  <READOUT KIND>
EC50

>  <OBSERVED>
217

$$$$
>  <COMPOUND>
N#Cc1cccc(-c2c[nH]c3nccc(N4C[C@H]5C[C@@H](C4)O5)c23)c1

>  <READOUT KIND>
EC50

>  <OBSERVED>
68.3

$$$$
>  <COMPOUND>
N#Cc1cccc(-c2c[nH]c3nccc(N4CCC(F)CC4)c23)c1

>  <READOUT KIND>
EC50

>  <OBSERVED>
39

$$$$
>  <COMPOUND>
Cn1cc(-c2c[nH]c3nccc(-c4cccc(F)c4F)c23)cn1

>  <READOUT KIND>
EC50

>  <OBSERVED>
58.9

$$$$
>  <COMPOUND>
COCc1cccc(-c2ccnc3[nH]cc(-c4cnn(C)c4)c23)c1

>  <READOUT KIND>
EC50

>  <OBSERVED>
234

$$$$

###

TGT: GST-tagged truncated LRRK2 (Homo sapiens)
Construct: GST-tagged truncated LRRK2 from Invitrogen (Cat # PV4874); GST
METHOD: LRRK2 kinase assay (Lantha Screen)
STUDY CONDITIONS: 1 mM ATP (head); a = geometric mean of >=4 determinations, b = single determination; read-out: LRRK2 LANTHA EC50 at 1 mM ATP; Geometric mean of 2-3 determinations unless otherwise indicated
# label = Criterion met if EC50 < 0.06 µM else Criterion not met

>  <CPD SMILES>
Cn1cc(-c2c[nH]c3nccc(-c4cc(F)ccc4F)c23)cn1

>  <TGT>
GST-tagged truncated LRRK2 (Homo sapiens)

>  <CLASS ASSIGNMENT>
Criterion met

$$$$
>  <CPD SMILES>
Cn1cc(-c2c[nH]c3nccc(-c4cccc(CC#N)c4)c23)cn1

>  <TGT>
GST-tagged truncated LRRK2 (Homo sapiens)

>  <CLASS ASSIGNMENT>
Criterion not met

$$$$
>  <CPD SMILES>
Fc1ccc(-c2c[nH]c3nccc(N4CCOCC4)c23)cc1

>  <TGT>
GST-tagged truncated LRRK2 (Homo sapiens)

>  <CLASS ASSIGNMENT>
Criterion not met

$$$$
>  <CPD SMILES>
COc1ccc(-c2ccnc3[nH]cc(-c4cnn(C)c4)c23)c(F)c1

>  <TGT>
GST-tagged truncated LRRK2 (Homo sapiens)

>  <CLASS ASSIGNMENT>
Criterion not met

$$$$
>  <CPD SMILES>
Fc1cc(F)cc(-c2c[nH]c3nccc(N4CCOCC4)c23)c1

>  <TGT>
GST-tagged truncated LRRK2 (Homo sapiens)

>  <CLASS ASSIGNMENT>
Criterion met

$$$$
>  <CPD SMILES>
N#Cc1cccc(-c2c[nH]c3nccc(-c4cccc(C(=O)NC5CC5)c4)c23)c1

>  <TGT>
GST-tagged truncated LRRK2 (Homo sapiens)

>  <CLASS ASSIGNMENT>
Criterion met

$$$$
>  <CPD SMILES>
Cn1cc(-c2c[nH]c3nccc(-c4cccc(Cl)c4)c23)cn1

>  <TGT>
GST-tagged truncated LRRK2 (Homo sapiens)

>  <CLASS ASSIGNMENT>
Criterion not met

$$$$
>  <CPD SMILES>
Cc1[nH]c2nccc(N3CCOCC3)c2c1-c1cccc(Cl)c1

>  <TGT>
GST-tagged truncated LRRK2 (Homo sapiens)

>  <CLASS ASSIGNMENT>
Criterion not met

$$$$
>  <CPD SMILES>
COc1ccc(F)c(F)c1-c1c[nH]c2nccc(N3CCOCC3)c12

>  <TGT>
GST-tagged truncated LRRK2 (Homo sapiens)

>  <CLASS ASSIGNMENT>
Criterion not met

$$$$

###

TGT: GST-tagged truncated LRRK2 (Homo sapiens, UniProt Q5S007)
Construct: GST-tagged truncated LRRK2 from Invitrogen (Cat # PV4874); GST
METHOD: LRRK2 kinase assay (Lantha Screen)
STUDY CONDITIONS: 1 mM ATP (head); a = geometric mean of >=4 determinations, b = single determination; read-out: LRRK2 LANTHA EC50 at 1 mM ATP; Geometric mean of 2-3 determinations unless otherwise indicated
Method: LRRK2 kinase activity was measured using Lantha Screen technology from Invitrogen. […] Upon completion, the assay was stopped and detected with a terbium labeled anti-phospho-ERM antibody (Invitrogen, cat # PR8975A). […] After an incubation of 1 hour at room temperature, the plate was read on an Envision with an excitation wavelength of 340 nm and a reading emission at both 520 nm and 495 nm. […]
READOUT KIND: log10 of EC50 (log10 of the value in nM)

>  <CPD SMILES>
N#Cc1cccc(-c2c[nH]c3ncc(C#N)c(N4CCOCC4)c23)c1

>  <log10 of EC50>
1.38

$$$$
>  <CPD SMILES>
N#Cc1cccc(-c2c[nH]c3nccc(N4CC[C@@H](F)C4)c23)c1

>  <log10 of EC50>
1.59

$$$$
>  <CPD SMILES>
C[C@H]1CN(c2ccnc3[nH]cc(-c4cccc(C#N)c4)c23)CCO1

>  <log10 of EC50>
1.02

$$$$
>  <CPD SMILES>
Cn1cc(-c2c[nH]c3nccc(N4CCOCC4)c23)cc1C#N

>  <log10 of EC50>
0.45

$$$$
>  <CPD SMILES>
COc1cncc(-c2c[nH]c3nccc(N4CCOCC4)c23)c1

>  <log10 of EC50>
2.38

$$$$
